Cited source: paper PMC3004914

target: rNav1.2 sodium channels (HEK-293 cells) (Rattus norvegicus, UniProt P04775); assay: steady-state inactivation protocol (availability curves), QPatch automated patch-clamp; type: cell-based; details: geometric mean; from Inh at −150 mV, 300 µM; read-out: Kr (resting state affinity)
Sequence (P04775 whole entry): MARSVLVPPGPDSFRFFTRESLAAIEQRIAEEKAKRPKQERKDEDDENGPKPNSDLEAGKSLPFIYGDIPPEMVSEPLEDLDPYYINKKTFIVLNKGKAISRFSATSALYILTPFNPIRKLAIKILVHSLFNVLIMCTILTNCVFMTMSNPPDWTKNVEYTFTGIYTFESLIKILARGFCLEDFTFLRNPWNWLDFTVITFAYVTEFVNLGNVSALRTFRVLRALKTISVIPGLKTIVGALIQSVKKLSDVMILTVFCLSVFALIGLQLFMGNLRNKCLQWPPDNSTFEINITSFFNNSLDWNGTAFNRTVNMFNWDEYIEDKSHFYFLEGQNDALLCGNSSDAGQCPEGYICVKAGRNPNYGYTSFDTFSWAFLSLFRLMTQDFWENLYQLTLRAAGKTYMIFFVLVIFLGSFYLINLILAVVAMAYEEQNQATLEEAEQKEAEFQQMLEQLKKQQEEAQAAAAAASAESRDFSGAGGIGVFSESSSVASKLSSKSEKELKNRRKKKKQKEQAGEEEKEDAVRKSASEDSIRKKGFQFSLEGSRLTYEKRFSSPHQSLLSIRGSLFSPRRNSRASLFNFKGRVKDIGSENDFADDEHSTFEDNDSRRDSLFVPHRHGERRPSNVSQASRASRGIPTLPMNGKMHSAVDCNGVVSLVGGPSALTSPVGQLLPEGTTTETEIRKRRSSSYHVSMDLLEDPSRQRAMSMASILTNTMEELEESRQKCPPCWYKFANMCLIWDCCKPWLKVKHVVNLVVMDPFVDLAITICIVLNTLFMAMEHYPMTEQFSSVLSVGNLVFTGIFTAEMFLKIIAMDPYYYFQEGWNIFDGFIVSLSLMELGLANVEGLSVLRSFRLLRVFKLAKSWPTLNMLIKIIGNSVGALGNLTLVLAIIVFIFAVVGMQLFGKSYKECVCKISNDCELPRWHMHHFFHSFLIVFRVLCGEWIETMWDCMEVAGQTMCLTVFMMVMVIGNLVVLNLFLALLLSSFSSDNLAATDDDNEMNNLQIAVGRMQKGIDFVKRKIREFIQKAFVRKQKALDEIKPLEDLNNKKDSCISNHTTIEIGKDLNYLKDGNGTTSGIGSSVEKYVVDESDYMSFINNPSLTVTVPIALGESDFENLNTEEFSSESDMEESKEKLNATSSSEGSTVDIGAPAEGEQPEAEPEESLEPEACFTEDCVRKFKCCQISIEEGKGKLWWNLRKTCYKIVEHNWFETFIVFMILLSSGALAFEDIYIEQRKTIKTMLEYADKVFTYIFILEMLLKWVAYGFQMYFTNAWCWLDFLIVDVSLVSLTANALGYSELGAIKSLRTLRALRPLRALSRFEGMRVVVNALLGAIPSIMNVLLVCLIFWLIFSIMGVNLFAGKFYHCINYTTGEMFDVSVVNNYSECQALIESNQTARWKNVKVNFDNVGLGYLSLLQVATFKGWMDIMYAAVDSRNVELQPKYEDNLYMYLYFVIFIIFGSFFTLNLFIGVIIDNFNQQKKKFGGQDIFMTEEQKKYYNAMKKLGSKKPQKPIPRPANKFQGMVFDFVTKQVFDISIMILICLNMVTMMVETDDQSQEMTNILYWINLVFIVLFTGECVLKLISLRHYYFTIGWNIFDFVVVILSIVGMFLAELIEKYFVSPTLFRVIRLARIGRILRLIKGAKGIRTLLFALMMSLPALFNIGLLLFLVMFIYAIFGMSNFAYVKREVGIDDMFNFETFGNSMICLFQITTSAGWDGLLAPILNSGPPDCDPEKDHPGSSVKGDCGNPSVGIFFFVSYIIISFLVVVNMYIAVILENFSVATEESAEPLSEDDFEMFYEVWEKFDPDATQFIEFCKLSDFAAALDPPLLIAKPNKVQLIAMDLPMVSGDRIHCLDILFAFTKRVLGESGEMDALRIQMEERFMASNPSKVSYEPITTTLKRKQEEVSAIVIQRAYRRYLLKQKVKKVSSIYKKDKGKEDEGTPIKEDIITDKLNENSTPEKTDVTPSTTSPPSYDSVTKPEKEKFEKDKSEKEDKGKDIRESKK
parameter: pKd
pKd here: minus log base 10 of the concentration, concentration in moles per litre.

Examples with answers:
>  <compound>
O=C(NCC1CCCCN1)c1cc(OCC(F)(F)F)ccc1OCC(F)(F)F (stereo not shown) [FLC, Flecainide]

>  <pKd>
4.19

$$$$
>  <compound>
CCN(CC)CC(=O)Nc1c(C)cccc1C [LID, Lidocaine]

>  <pKd>
2.50

$$$$
>  <compound>
NC(=O)N1c2ccccc2C=Cc2ccccc21 [CBZ, Carbamazepine]

>  <pKd>
2.93

$$$$

According to the records, this compound COc1ccccc1OCC(O)CN1CCN(CC(=O)Nc2c(C)cccc2C)CC1 (stereo not shown) [RAN, Ranolazine] displays pKd of 3.36

* * *

target: rNav1.2 sodium channels (HEK-293 cells) (Rattus norvegicus, UniProt P04775); assay: 5 Hz train protocol, QPatch automated patch-clamp; type: cell-based; details: 100 μM; Rev = A5/A1 after washout
Measured Rev (reversibility), listed per entry for reference.
Lab note: record just the number, no unit beside it.

Examples with answers:
>  <compound>
COc1ccc(C(CN(C)C)C2(O)CCCCC2)cc1 (stereo not shown) [VFX, Venlafaxine]

>  <measured.on>
rNav1.2 sodium channels (HEK-293 cells) (Rattus norvegicus, UniProt P04775)

>  <Rev (reversibility)>
0.89

$$$$
>  <compound>
CC(NC(C)(C)C)C(=O)c1cccc(Cl)c1 (stereo not shown) [BPR, Bupropion]

>  <measured.on>
rNav1.2 sodium channels (HEK-293 cells) (Rattus norvegicus, UniProt P04775)

>  <Rev (reversibility)>
0.92

$$$$
>  <compound>
COc1ccccc1OCC(O)CN1CCN(CC(=O)Nc2c(C)cccc2C)CC1 (stereo not shown) [RAN, Ranolazine]

>  <measured.on>
rNav1.2 sodium channels (HEK-293 cells) (Rattus norvegicus, UniProt P04775)

>  <Rev (reversibility)>
0.89

$$$$

The record that follows has no Rev (reversibility) shown yet.
According to the records, this compound CN1CCN2c3ncccc3Cc3ccccc3C2C1 (stereo not shown) [MRZ, Mirtazapine] displays Rev (reversibility) of 0.89

* * *

Measured τoff, listed per entry for reference.
target: rNav1.2 sodium channels (HEK-293 cells) (Rattus norvegicus, UniProt P04775); assay: 5 Hz train protocol, QPatch automated patch-clamp; format: cell-based; conditions: 100 μM; 500 s assigned where irreversible

According to the records, this molecule Nc1c(Br)cc(Br)cc1CN[C@H]1CC[C@H](O)CC1 [AMB, Ambroxol] displays τoff of 6.78 s

According to the records, this molecule CC(NC(C)(C)C)C(=O)c1cccc(Cl)c1 (centres unmarked) [BPR, Bupropion] displays τoff of 12.45 s

According to the records, this molecule CNCCC(Oc1ccccc1OC)c1ccccc1 (centres unmarked) [NIS, Nisoxetine] displays τoff of 23.41 s

According to the records, this molecule CC12CC3CC(C)(C1)CC(N)(C3)C2 [MEM, Memantine] displays τoff of 8.98 s

According to the records, this molecule CCCCN1CCCCC1C(=O)Nc1c(C)cccc1C (centres unmarked) [BPV, Bupivacaine] displays τoff of 16.73 s

According to the records, this molecule O=C(O)Cc1ccccc1Nc1c(Cl)cccc1Cl [DIC, Diclofenac] displays τoff of 26.43 s

According to the records, this molecule Cc1ccc(C(=O)C(C)CN2CCCCC2)cc1 (centres unmarked) [TOL, Tolperisone] displays τoff of 7.42 s

According to the records, this molecule COc1ccccc1OCC(O)CN1CCN(CC(=O)Nc2c(C)cccc2C)CC1 (centres unmarked) [RAN, Ranolazine] displays τoff of 13.24 s
